- protocol notes: NCI Yeast Anticancer Drug Screen. Data for the bub3 strain (AID 167)
- test settings: S. cerevisiae bub3 mutant strain, at 50.0 µM, stronger effect = higher value
Compounds without any hit were thinned out: in the full panel of roughly 79,000, 15% have a hit. Calls of active or inactive are those of the source. No stated cut-off is given here; in the data, active means growth inhibition above about 70%; inactive means the rest.
measure name: growth inhibition

Below are worked cases with known answers.
[Cl][Hg][c]1ccc2ccccc2c1; 88.1% (active)
CCN1CCCc2cc3c(C(F)(F)F)cc(=O)oc3cc21; -6.45% (inactive)
O=C=Nc1cccc(S(=O)(=O)F)c1; 33.9% (inactive)
CC(=O)C(CN(C)Cc1ccccc1)C(c1ccccc1)c1c(O)c2ccccc2oc1=O (configuration not stated); 70.7% (active)
CC(C)OC(=O)Nc1cccc(Cl)c1; 0.3% (inactive)

QUERY: Hello, please tell me recorded growth inhibition for this one: CC([NH-])C[NH-].[NH2-].[NH2-].[Pt+4] (configuration not stated)
RESULT: 5.8% (inactive)
